IC50: recorded values
Protein target, amino acids: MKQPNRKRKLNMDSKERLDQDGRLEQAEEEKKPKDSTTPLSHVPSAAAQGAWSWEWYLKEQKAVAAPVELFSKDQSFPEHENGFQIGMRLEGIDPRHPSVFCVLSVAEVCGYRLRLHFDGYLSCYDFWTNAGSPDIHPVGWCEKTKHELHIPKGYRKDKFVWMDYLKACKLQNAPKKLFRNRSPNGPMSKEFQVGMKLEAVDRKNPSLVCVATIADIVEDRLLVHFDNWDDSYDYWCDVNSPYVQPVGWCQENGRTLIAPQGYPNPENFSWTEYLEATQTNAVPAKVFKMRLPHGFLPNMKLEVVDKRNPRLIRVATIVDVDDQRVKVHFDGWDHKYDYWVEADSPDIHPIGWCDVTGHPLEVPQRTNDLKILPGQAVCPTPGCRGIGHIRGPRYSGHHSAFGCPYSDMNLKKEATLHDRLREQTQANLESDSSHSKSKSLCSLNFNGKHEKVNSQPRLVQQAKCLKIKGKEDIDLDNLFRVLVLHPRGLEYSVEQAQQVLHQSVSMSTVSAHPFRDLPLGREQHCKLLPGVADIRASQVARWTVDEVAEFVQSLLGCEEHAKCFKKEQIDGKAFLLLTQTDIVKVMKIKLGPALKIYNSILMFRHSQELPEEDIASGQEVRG
Measured metric: IC50

1. CC(CCN(C)C)OC(=O)c1ccc(C(C)c2ccccc2)o1 (centres undefined): > 100 µM
2. CNCCCCc1ccccc1: > 100 µM
3. CNCC1CCN(CCc2ccc(Cl)cc2)CC1: > 100 µM
4. CNCCCC(C#N)(c1ccccc1C)C(C)C (centres undefined): > 100 µM
5. Cc1ncc(CCCCN(C)C)c2c1[nH]c1ccccc12: > 100 µM
6. CNCCCC1Sc2ccccc2Oc2ccccc21 (centres undefined): > 100 µM
7. CNCCC1OC(c2ccc(Cl)cc2)Cc2ccccc21 (centres undefined): 78 µM
8. CNCCCCOc1ccc(C)cc1OC: 92 µM
9. Cc1ccc(S(=O)(=O)NCCCN2CCCC2)cc1: > 100 µM

###

pIC50 values recorded for Lethal(3)malignant brain tumor-like protein 1 (Homo sapiens, UniProt Q9Y468)
pIC50: −log10 of the molar value.
Measured metric: pIC50

1. CNCCCCc1ccccc1: 4.17
2. CNCCCC(C#N)(c1ccccc1C)C(C)C (configuration not stated): 4.74
3. CN(C)CCCNC(=O)C1(O)c2cc(Br)ccc2NC(=O)N1c1ccc(Cl)cc1 (configuration not stated): 4.28
4. CNCCCC1Sc2ccccc2Oc2ccccc21 (configuration not stated): 4.85

###

pIC50 values recorded for MBT domain-containing protein 1 (Homo sapiens, UniProt Q05BQ5)
pIC50: −log10 of the molar value.
Measured metric: pIC50

1) CNCCC1OC(c2ccc(Cl)cc2)Cc2ccccc21 (centres undefined): < 4.00
2) CNCCCC(C#N)(c1ccccc1C)C(C)C (centres undefined): < 4.00
3) CN(C)CCC(c1ccc(Cl)cc1)c1ccccn1 (centres undefined): 4.47
4) CCN(CC)CCCNS(=O)(=O)c1cc(OC)ccc1OC: < 4.00
5) CCc1cc(OCCCCNC)ccc1Cl: < 4.00
6) Cc1ncc(CCCCN(C)C)c2c1[nH]c1ccccc12: 4.14
7) CNCC1CCN(CCc2ccc(Cl)cc2)CC1: < 4.00
8) CCN(CC)CC#CCOC(=O)C(O)(c1ccccc1)C1CCCCC1 (centres undefined): < 4.00
9) Cc1ccc(S(=O)(=O)NCCCN2CCCC2)cc1: 4.23

###

assay: AlphaScreen counterscreen signal interference at 100 uM
Measured metric: Activity (%)

1) CNCCCC(C#N)(c1ccccc1C)C(C)C (stereo not given): 3
2) CCN(CC)CCCNS(=O)(=O)c1cc(OC)ccc1OC: -6
3) CCN(CC)CCCNS(=O)(=O)c1ccc(F)c(Cl)c1: 8
4) CN(C)CCCNC(=O)C1(O)c2cc(Br)ccc2NC(=O)N1c1ccc(Cl)cc1 (stereo not given): 3
5) Cc1ncc(CCCCN(C)C)c2c1[nH]c1ccccc12: 15
6) CN(C)CCC(=O)c1cc2c(cc1Br)OCCCO2: 35
7) CC(CCN(C)C)OC(=O)c1ccc(C(C)c2ccccc2)o1 (stereo not given): 22
8) CNCCCCOc1ccc(C)cc1OC: 30
9) CNCCCCOc1ccc(Cc2ccccc2)cc1: 8
10) CNCCCCc1ccccc1: 5

###

Protein target, amino acids: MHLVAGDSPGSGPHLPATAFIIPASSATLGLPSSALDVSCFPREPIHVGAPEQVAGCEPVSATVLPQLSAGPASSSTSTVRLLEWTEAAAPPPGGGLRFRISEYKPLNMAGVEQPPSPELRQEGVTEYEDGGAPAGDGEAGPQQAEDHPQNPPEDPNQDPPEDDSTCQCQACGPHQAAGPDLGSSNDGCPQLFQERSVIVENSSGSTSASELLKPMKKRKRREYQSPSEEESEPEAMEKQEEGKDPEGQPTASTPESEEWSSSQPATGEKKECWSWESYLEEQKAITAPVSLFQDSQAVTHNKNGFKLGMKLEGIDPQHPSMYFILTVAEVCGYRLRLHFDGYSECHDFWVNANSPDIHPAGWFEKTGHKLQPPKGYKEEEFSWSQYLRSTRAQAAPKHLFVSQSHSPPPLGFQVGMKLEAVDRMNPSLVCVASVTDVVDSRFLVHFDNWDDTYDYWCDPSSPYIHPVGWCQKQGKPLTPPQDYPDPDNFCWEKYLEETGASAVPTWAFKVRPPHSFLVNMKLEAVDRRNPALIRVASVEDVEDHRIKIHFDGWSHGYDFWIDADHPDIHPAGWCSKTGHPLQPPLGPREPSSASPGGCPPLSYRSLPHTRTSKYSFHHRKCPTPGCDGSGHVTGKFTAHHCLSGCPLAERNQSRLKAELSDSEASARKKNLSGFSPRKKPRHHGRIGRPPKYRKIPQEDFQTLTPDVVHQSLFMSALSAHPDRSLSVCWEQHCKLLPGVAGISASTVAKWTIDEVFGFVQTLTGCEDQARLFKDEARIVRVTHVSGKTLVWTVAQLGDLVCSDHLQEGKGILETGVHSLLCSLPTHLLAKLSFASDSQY
pIC50: −log10 of the molar value.
Measured metric: pIC50

1. CN(C)CCC(=O)c1cc2c(cc1Br)OCCCO2: < 4.00
2. CNCCCCOc1ccc(C)cc1OC: < 4.00
3. CCN(CC)CCCNS(=O)(=O)c1ccc(F)c(Cl)c1: < 4.00
